- tested_on: Ferroportin (Homo sapiens)
- assay_protocol: Agonist activity at GFP-fused human FPN transfected in HEK293 cells assessed as protein degradation after 24 hrs by flow cytometric analysis
Starred links: 1 amine or outer side, 2 acyl side, 3 side chain; linkers in the order of their positions; H or OH if unused. Positions of bridges follow the written chain, without caps; N, C: chain ends. Non-standard residues stand in square brackets, D forms with d. Residues, ends and D or L forms follow the SMILES beside them. *: point of attachment. X2 = O=C(CC(c1ccccc1)(c1ccccc1)c1ccccc1)*; X5 = c1cc(Cc2cccc(C[*:2])c2)cc(C[*:1])c1; Dip = N[C@H](C(=O)O)C(c1ccccc1)c1ccccc1; mXylylene = c1cc(C[*:1])cc(C[*:2])c1; oXylylene = c1ccc(C[*:2])c(C[*:1])c1; NH(CH2CH2O)2CH2CH2NH2 = NCCOCCOCCN*; Mpa = O=C(O)CCS
Some molecules, each annotated with its measured EC50.
The figure you give is taken to be in nM; do not add the unit.

// known answers, use as guide
molecule	tested_on	unit_label	EC50
CC(=O)N[C@H]1CSCc2cccc(c2)Cc2cccc(c2)CSC[C@@H](C(N)=O)NC(=O)[C@H](Cc2ccccc2)NC(=O)[C@H](CCCNC(=N)N)NC(=O)[C@H](CS)NC(=O)[C@H](CCCNC(=N)N)NC(=O)[C@@H]2CCCN2C(=O)[C@H](Cc2ccccc2)NC1=O (Ac-CFPRCRFC-NH2; linker 1-8 via X5)	Ferroportin (Homo sapiens)	nM	517
CC(=O)N[C@H]1CSCc2cccc(c2)CSC[C@@H](C(N)=O)NC(=O)[C@H](Cc2ccccc2)NC(=O)[C@H](CCCNC(=N)N)NC(=O)[C@H](CS)NC(=O)[C@H](CCCNC(=N)N)NC(=O)[C@@H]2CCCN2C(=O)[C@H](Cc2ccccc2)NC1=O (Ac-CFPRCRFC-NH2; linker 1-8 via mXylylene)	Ferroportin (Homo sapiens)	nM	272
N=C(N)NCCC[C@@H]1NC(=O)[C@@H](NC(=O)CC(c2ccccc2)(c2ccccc2)c2ccccc2)CSCc2cccc(c2)CSC[C@@H](C(N)=O)NC(=O)[C@H](Cc2ccccc2)NC(=O)[C@H](CCCNC(=N)N)NC(=O)[C@H](CS)NC1=O (X2-CRCRFC-NH2; linker 1-6 via mXylylene)	Ferroportin (Homo sapiens)	nM	113

What does the data say about its EC50? Entry: CC(=O)N[C@H]1CSCc2ccccc2CSC[C@@H](C(N)=O)NC(=O)[C@H](Cc2ccccc2)NC(=O)[C@H](CCCNC(=N)N)NC(=O)[C@H](CS)NC(=O)[C@H](CCCNC(=N)N)NC(=O)[C@@H]2CCCN2C(=O)[C@H](Cc2ccccc2)NC1=O (Ac-CFPRCRFC-NH2; linker 1-8 via oXylylene)
599

Consider the molecule shown here: C[C@@H](O)[C@H](NC(=O)CNCC(=O)O)C(=O)N[C@H]1CSCc2cccc(c2)CSC[C@@H](C(N)=O)NC(=O)[C@H](Cc2ccccc2)NC(=O)[C@H](CCCNC(=N)N)NC(=O)[C@H](CS)NC(=O)[C@H](CCCNC(=N)N)NC(=O)[C@@H]2CCCN2C(=O)[C@H](Cc2ccccc2)NC1=O What is its recorded EC50?
532

// lookup EC50 for N=C(N)NCCC[C@@H]1NC(=O)[C@H](CS)NC(=O)[C@H](CCCNC(=N)N)NC(=O)[C@@H]2CCCN2C(=O)[C@H](C(c2ccccc2)c2ccccc2)NC(=O)CCSCc2cccc(c2)CSC[C@@H](C(=O)NCCOCCOCCN)NC(=O)[C@H](Cc2ccccc2)NC1=O ([Mpa][Dip]PRCRFC-{NH(CH2CH2O)2CH2CH2NH2}; linker 1-8 via mXylylene)
92.3

So what does the record say about EC50 for N=C(N)NCCC[C@@H]1NC(=O)[C@H](CS)NC(=O)[C@H](CCCNC(=N)N)NC(=O)[C@H](NC(=O)CC(c2ccccc2)c2ccccc2)CSCc2cccc(c2)CSCCNC(=O)[C@H](Cc2ccccc2)NC1=O ?
269

* * *

- tested_on: Ferroportin (Homo sapiens, UniProt Q9NP59)
- Sequence (Q9NP59 whole entry, the tested form may be a part): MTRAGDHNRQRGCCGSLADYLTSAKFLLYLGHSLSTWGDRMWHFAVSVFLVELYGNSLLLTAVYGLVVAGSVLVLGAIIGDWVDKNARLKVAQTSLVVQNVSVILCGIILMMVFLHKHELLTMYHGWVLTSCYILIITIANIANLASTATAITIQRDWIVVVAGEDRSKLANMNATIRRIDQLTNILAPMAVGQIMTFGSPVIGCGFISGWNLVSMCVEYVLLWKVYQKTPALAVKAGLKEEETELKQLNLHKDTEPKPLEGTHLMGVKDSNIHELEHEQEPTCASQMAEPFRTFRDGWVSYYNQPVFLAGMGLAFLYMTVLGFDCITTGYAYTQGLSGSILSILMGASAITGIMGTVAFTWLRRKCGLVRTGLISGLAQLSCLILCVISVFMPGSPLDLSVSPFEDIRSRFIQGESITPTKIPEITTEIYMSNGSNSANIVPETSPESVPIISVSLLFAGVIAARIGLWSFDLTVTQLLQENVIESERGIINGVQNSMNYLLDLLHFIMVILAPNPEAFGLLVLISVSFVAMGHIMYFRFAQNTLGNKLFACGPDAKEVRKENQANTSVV
- assay_protocol: Agonist activity at GFP-fused human FPN transfected in HEK293 cells assessed as protein degradation after 24 hrs by flow cytometric analysis
Starred links: 1 amine or outer side, 2 acyl side, 3 side chain; linkers in the order of their positions; H or OH if unused. Positions of bridges follow the written chain, without caps; N, C: chain ends. Residues, ends and D or L forms follow the SMILES beside them. *: point of attachment. Propanoyl(3,3-Ph2) = O=C(CC(c1ccccc1)c1ccccc1)*; mXylylene = c1cc(C[*:1])cc(C[*:2])c1; pXylylene = c1cc(C[*:2])ccc1C[*:1]
The entries below come with measured EC50 values attached.
Value expressed in nM; do not type the unit.

compound	tested_on	EC50 [nM]
N=C(N)NCCC[C@@H]1NC(=O)[C@@H](NC(=O)CC(c2ccccc2)c2ccccc2)CSCc2cccc(c2)CSC[C@@H](C(N)=O)NC(=O)[C@H](Cc2ccccc2)NC(=O)[C@H](CCCNC(=N)N)NC(=O)[C@H](CS)NC1=O ({Propanoyl(3,3-Ph2)}-CRCRFC-NH2; linker 1-6 via mXylylene)	Ferroportin (Homo sapiens, UniProt Q9NP59)	104

# input for lookup
Recorded EC50 of CC(=O)N[C@H]1CSCc2ccc(cc2)CSC[C@@H](C(N)=O)NC(=O)[C@H](Cc2ccccc2)NC(=O)[C@H](CCCNC(=N)N)NC(=O)[C@H](CS)NC(=O)[C@H](CCCNC(=N)N)NC(=O)[C@@H]2CCCN2C(=O)[C@H](Cc2ccccc2)NC1=O (Ac-CFPRCRFC-NH2; linker 1-8 via pXylylene) , please.
586

* * *

- tested_on: Ferroportin (Homo sapiens)
- assay_protocol: Agonist activity at GFP-fused human FPN transfected in HEK293 cells assessed as protein degradation after 24 hrs by flow cytometric analysis
Starred links: 1 amine or outer side, 2 acyl side, 3 side chain; linkers in the order of their positions; H or OH if unused. Positions of bridges follow the written chain, without caps; N, C: chain ends. Non-standard residues stand in square brackets, D forms with d. Residues, ends and D or L forms follow the SMILES beside them. *: point of attachment. Propanoyl(3,3-Ph2) = O=C(CC(c1ccccc1)c1ccccc1)*; Dip = N[C@H](C(=O)O)C(c1ccccc1)c1ccccc1; X7 = c1cc(Oc2ccc(C[*:2])cc2)ccc1C[*:1]; X1 = CCCCCCCCCCCCCCCC(=O)NCCOCCOCCN*; mXylylene = c1cc(C[*:1])cc(C[*:2])c1; NH(CH2CH2O)2CH2CH2NH2 = NCCOCCOCCN*; Palmitoyl = CCCCCCCCCCCCCCCC(=O)*; X4 = c1cc(CSCCN[*:2])cc(C[*:1])c1
quantity_measured: EC50 (nM)
Provide the reading as a plain figure in nM.

Use the examples below as a reference point.
compound	quantity_measured	measured_result
C[C@@H](O)[C@H](NC(=O)CNCC(=O)O)C(=O)N[C@H]1CSCc2cccc(c2)CSC[C@@H](C(N)=O)NC(=O)[C@H](Cc2ccccc2)NC(=O)[C@H](CCCNC(=N)N)NC(=O)[C@H](CS)NC(=O)[C@H](CCCNC(=N)N)NC(=O)[C@@H]2CCCN2C(=O)[C@H](C(c2ccccc2)c2ccccc2)NC1=O	EC50	75.1
CC(=O)N[C@H]1CSCc2cccc(c2)CSC[C@@H](C(=O)NCCOCCOCCN)NC(=O)[C@H](Cc2ccccc2)NC(=O)[C@H](CCCNC(=N)N)NC(=O)[C@H](CS)NC(=O)[C@H](CCCNC(=N)N)NC(=O)[C@@H]2CCCN2C(=O)[C@H](C(c2ccccc2)c2ccccc2)NC1=O (Ac-C[Dip]PRCRFC-{NH(CH2CH2O)2CH2CH2NH2}; linker 1-8 via mXylylene)	EC50	165
N=C(N)NCCC[C@@H]1NC(=O)[C@H](CS)NC(=O)[C@H](CCCNC(=N)N)NC(=O)[C@H](NC(=O)CC(c2ccccc2)c2ccccc2)CSCc2cccc(c2)CSC[C@@H](C(N)=O)NC(=O)[C@H](Cc2ccccc2)NC1=O ({Propanoyl(3,3-Ph2)}-[dC]RCRFC-NH2; linker 1-6 via mXylylene)	EC50	335
CCCCCCCCCCCCCCCC(=O)N[C@H]1CSCc2cccc(c2)CSCCNC(=O)[C@H](Cc2ccccc2)NC(=O)[C@H](CCCNC(=N)N)NC(=O)[C@H](CS)NC(=O)[C@H](CCCNC(=N)N)NC(=O)[C@@H]2CCCN2C(=O)[C@H](C(c2ccccc2)c2ccccc2)NC1=O (Palmitoyl-C[Dip]PRCRF; linker 1-C via X4)	EC50	369
CC(=O)N[C@H]1CSCc2ccc(cc2)Oc2ccc(cc2)CSC[C@@H](C(N)=O)NC(=O)[C@H](Cc2ccccc2)NC(=O)[C@H](CCCNC(=N)N)NC(=O)[C@H](CS)NC(=O)[C@H](CCCNC(=N)N)NC(=O)[C@@H]2CCCN2C(=O)[C@H](Cc2ccccc2)NC1=O (Ac-CFPRCRFC-NH2; linker 1-8 via X7)	EC50	477

I'd like to know its EC50. The compound in question is CCCCCCCCCCCCCCCC(=O)NCCOCCOCCNC(=O)[C@@H]1CSCc2cccc(c2)CSC[C@H](NC(=O)CC(c2ccccc2)c2ccccc2)C(=O)N[C@@H](CCCNC(=N)N)C(=O)N[C@@H](CS)C(=O)N[C@@H](CCCNC(=N)N)C(=O)N[C@@H](Cc2ccccc2)C(=O)N1 ({Propanoyl(3,3-Ph2)}-CRCRFC-X1; linker 1-6 via mXylylene)
52.3
